measured.target: T1, 383 amino acid recombinant tau (UniProt P10636-6 1-383, biotinylated where printed as biotin-rTau383 (position not given))
T1 construct: also called rTau383
T1 sequence (P10636 other isoform, or with tags, fused parts or gaps limits assumed): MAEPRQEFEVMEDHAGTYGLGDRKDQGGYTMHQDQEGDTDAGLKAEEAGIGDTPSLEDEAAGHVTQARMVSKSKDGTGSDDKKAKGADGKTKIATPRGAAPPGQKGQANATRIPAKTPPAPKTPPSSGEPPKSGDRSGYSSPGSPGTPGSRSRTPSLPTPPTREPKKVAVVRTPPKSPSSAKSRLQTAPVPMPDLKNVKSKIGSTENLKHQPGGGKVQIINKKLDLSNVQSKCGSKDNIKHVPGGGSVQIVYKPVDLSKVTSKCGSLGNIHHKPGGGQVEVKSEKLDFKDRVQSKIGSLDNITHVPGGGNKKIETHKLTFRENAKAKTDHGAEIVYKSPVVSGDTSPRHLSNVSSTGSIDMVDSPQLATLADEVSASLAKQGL
test.summary: Octet
Quick reference: Kd of the listed items.
Numeric answer only, unit pM assumed.

Examples with their reported Kd follow.
{"columns": ["binder", "Kd [pM]"],
 "data": [
  ["VH2/Vk4 (antibody, V domains shown, member of the group m7; also called humanized IPN002 variant VH2/Vk4) VH: EVHLVESGGALVKPGGSLRLSCAASGFSFSKYGMSWVRQAPGKGLEWVATISSSGSRTYYPDSVKGRFTISRDNAKNTLYLQMNSLRAEDTAMYYCSISWDGAMDYWGQGTTVTVSS VL: DVVMTQSPLSLPVTLGQPASISCKSSQSIVHSNGNTYLEWYLQKPGQSPQLLIYKVSNRFSGVPDRFSGSGSGTDFTLKISRVEAEDVGVYYCFQGSLVPWAFGGGTKVEIK", 1660],
  ["VH3/Vk2 (antibody, V domains shown, member of the group m7; also called humanized IPN002 variant VH3/Vk2) VH: EVQLVESGGALVKPGGSLRLSCAASGFSFSKYGMSWVRQAPGKGLEWVATISSSGSRTYYPDSVKGRFTISRDNAKNTLYLQMNSLRAEDTAMYYCSISWDGAMDYWGQGTTVTVSS VL: DVVMTQSPLSLPVTLGQPASISCKSSQSIVHSNGNTYLEWYLQKPGQSPQLLVYKVSNRFSGVPDRFSGSGSGTDFTLKISRVEAEDVGTYYCFQGSLVPWAFGGGTKVEIK", 577]
]}

Turning to the following binder.
Kd in this record for VH3/Vk4 (antibody, V domains shown, member of the group m7; also called humanized IPN002 variant VH3/Vk4) VH: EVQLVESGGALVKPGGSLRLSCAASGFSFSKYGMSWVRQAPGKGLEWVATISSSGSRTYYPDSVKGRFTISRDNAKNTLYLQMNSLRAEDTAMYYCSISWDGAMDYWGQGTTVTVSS VL: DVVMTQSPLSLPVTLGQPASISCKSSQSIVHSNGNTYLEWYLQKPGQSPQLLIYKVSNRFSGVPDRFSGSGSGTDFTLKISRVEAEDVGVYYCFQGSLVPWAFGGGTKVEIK : 475
